Data credit: paper PMC5042352

Assay: Stability of the analytes in human plasma at QC levels
Assay type: in vitro ADME
Settings: low QC; 40 days, −40 °C; human plasma; n = 5
measure: Long-term Dev. (%)

Record excerpt, results attached:
molecule: CCC(=O)OCC(=O)[C@@]1(O)[C@@H](C)C[C@H]2[C@@H]3CCC4=CC(=O)C=C[C@]4(C)[C@@]3(F)[C@@H](O)C[C@@]21C [B21P, betamethasone 21-monopropionate]
measure: Long-term Dev. (%)
measured-value: 8.42
//
molecule: C[C@H]1C[C@H]2[C@@H]3CCC4=CC(=O)C=C[C@]4(C)[C@@]3(F)[C@@H](O)C[C@]2(C)[C@@]1(O)C(=O)CO
measure: Long-term Dev. (%)
measured-value: 7.34
//
molecule: C[C@H]1C[C@H]2[C@@H]3CCC4=CC(=O)C=C[C@]4(C)[C@@]3(F)[C@@H](O)C[C@]2(C)[C@@]1(O)C(=O)COP(=O)([O-])[O-].[Na+].[Na+] [BSP, betamethasone sodium phosphate]
measure: Long-term Dev. (%)
measured-value: −1.07

P = CCC(=O)OCC(=O)[C@@]1(OC(=O)CC)[C@@H](C)C[C@H]2[C@@H]3CCC4=CC(=O)C=C[C@]4(C)[C@@]3(F)[C@@H](O)C[C@@]21C [BDP, betamethasone dipropionate]
Q = CCC(=O)O[C@]1(C(=O)CO)[C@@H](C)C[C@H]2[C@@H]3CCC4=CC(=O)C=C[C@]4(C)[C@@]3(F)[C@@H](O)C[C@@]21C [B17P, betamethasone 17-monopropionate]
Query: Parameter check: reported Long-term Dev. (%) is higher for which label, P or Q ? Pick one and reply with its label.
Reply: Q

---

Assay: Stability of the analytes in human plasma at QC levels
Type: in vitro ADME
Settings: high QC; autosampler r.t., 48 h; n = 5
measure: The autosampler Dev. (48h, %)

Record excerpt, results attached:
molecule: C[C@H]1C[C@H]2[C@@H]3CCC4=CC(=O)C=C[C@]4(C)[C@@]3(F)[C@@H](O)C[C@]2(C)[C@@]1(O)C(=O)CO
The autosampler Dev. (48h, %): 6.68
//
molecule: C[C@H]1C[C@H]2[C@@H]3CCC4=CC(=O)C=C[C@]4(C)[C@@]3(F)[C@@H](O)C[C@]2(C)[C@@]1(O)C(=O)COP(=O)([O-])[O-].[Na+].[Na+] [BSP, betamethasone sodium phosphate]
The autosampler Dev. (48h, %): 11.19
//
molecule: CCC(=O)O[C@]1(C(=O)CO)[C@@H](C)C[C@H]2[C@@H]3CCC4=CC(=O)C=C[C@]4(C)[C@@]3(F)[C@@H](O)C[C@@]21C [B17P, betamethasone 17-monopropionate]
The autosampler Dev. (48h, %): −4.7

a = CCC(=O)OCC(=O)[C@@]1(OC(=O)CC)[C@@H](C)C[C@H]2[C@@H]3CCC4=CC(=O)C=C[C@]4(C)[C@@]3(F)[C@@H](O)C[C@@]21C [BDP, betamethasone dipropionate]
b = CCC(=O)OCC(=O)[C@@]1(O)[C@@H](C)C[C@H]2[C@@H]3CCC4=CC(=O)C=C[C@]4(C)[C@@]3(F)[C@@H](O)C[C@@]21C [B21P, betamethasone 21-monopropionate]
Query: For the pair a and b , which member has the lower The autosampler Dev. (48h, %) number? Pick one and reply with its label.
Reply: b
